The measurements presented in this section are drawn from patent US20260130395A1.

test: Stability of cannabinoid compounds and Vitamin E components in Beverage 2 (AB Red) by LCMSMS; format: physicochemical; settings: stored at 8° C., 29 days
measurementType: Stability of Plant-Derived Cannabinoid Compounds in AB Red (µg/mL)
Numbers only; they are read as µg/mL.

Below, each entry is followed by its recorded Stability of Plant-Derived Cannabinoid Compounds in AB Red result.
CCCCCc1cc2c(c(O)c1C(=O)O)[C@@H]1C=C(C)CC[C@H]1C(C)(C)O2 [D9 THCA, delta-9-tetrahydrocannabinolic acid]    1.35
CCCCCc1cc(O)c2c(c1)OC(C)(C)[C@@H]1CCC(C)=C[C@@H]21 [D9 THC, delta-9-tetrahydrocannabinol, reference compound]    12.7

Query molecule follows.
So what does the record say about Stability of Plant-Derived Cannabinoid Compounds in AB Red for C=C(C)[C@@H]1CCC(C)=C[C@H]1c1c(O)cc(CCCCC)c(C(=O)O)c1O [CBDA, cannabidiolic acid] ?
1.66

* * *

# Stability of Plant-Derived Cannabinoid Compounds in AB Red values compiled below
assay: Stability of cannabinoid compounds and Vitamin E components in Beverage 2 (AB Red) by LCMSMS; type: physicochemical; details: stored at 8° C., 24 days
Numbers only; they are read as µg/mL.

C=C(C)[C@@H]1CCC(C)=C[C@H]1c1c(O)cc(CCC)cc1O    0.197
CCCCCc1cc2c(c(O)c1C(=O)O)[C@@H]1C=C(C)CC[C@H]1C(C)(C)O2 [D9 THCA, delta-9-tetrahydrocannabinolic acid]    1.33

So what does the record say about Stability of Plant-Derived Cannabinoid Compounds in AB Red for CCCCCc1cc(O)c2c(c1)OC(C)(C)[C@@H]1CCC(C)=C[C@@H]21 [D9 THC, delta-9-tetrahydrocannabinol, reference compound] ?
12.9

So what does the record say about Stability of Plant-Derived Cannabinoid Compounds in AB Red for `C=C(C)[C@@H]1CCC(C)=C[C@H]1c1c(O)cc(CCCCC)c(C(=O)O)c1O` ?
1.70

So what does the record say about Stability of Plant-Derived Cannabinoid Compounds in AB Red for `CCCCCc1cc(O)c(C/C=C(\C)CCC=C(C)C)c(O)c1` ?
4.65

So what does the record say about Stability of Plant-Derived Cannabinoid Compounds in AB Red for CCCc1cc(O)c2c(c1)OC(C)(C)[C@@H]1CCC(C)=C[C@@H]21 [THCV, delta-9-tetrahydrocannabivarin] ?
3.15

* * *

experiment: Stability of cannabinoid compounds and Vitamin E components in Beverage 2 (AB Red) by LCMSMS; format: physicochemical; conditions: stored at 21-25° C., 330 days
# Stability of Plant-Derived Cannabinoid Compounds in AB Red values compiled below
Numbers only; they are read as µg/mL.

Below, each entry is followed by its recorded Stability of Plant-Derived Cannabinoid Compounds in AB Red result.
CCCCCc1cc(O)c2c(c1)OC1(C)CCC3C1C2C3(C)C (centres unmarked)    0.50
CCCCCc1cc(O)c2c(c1)OC(C)(C)c1ccc(C)cc1-2    2.75
CCCCCc1cc(O)c2c(c1)OC(C)(CCC=C(C)C)C=C2 (centres unmarked)    0.29
CCCCCc1cc(O)c2c(c1)OC(C)(C)[C@@H]1CCC(C)=C[C@@H]21 [D9 THC, delta-9-tetrahydrocannabinol, reference compound]    12.1

Query molecule follows.
So what does the record say about Stability of Plant-Derived Cannabinoid Compounds in AB Red for `C=C(C)[C@@H]1CCC(C)=C[C@H]1c1c(O)cc(CCCCC)c(C(=O)O)c1O` ?
1.65
